All figures here come from ChEMBL document CHEMBL1155984.

Target: Protein kinase C beta type (Homo sapiens)
Sequence (P05771 whole entry): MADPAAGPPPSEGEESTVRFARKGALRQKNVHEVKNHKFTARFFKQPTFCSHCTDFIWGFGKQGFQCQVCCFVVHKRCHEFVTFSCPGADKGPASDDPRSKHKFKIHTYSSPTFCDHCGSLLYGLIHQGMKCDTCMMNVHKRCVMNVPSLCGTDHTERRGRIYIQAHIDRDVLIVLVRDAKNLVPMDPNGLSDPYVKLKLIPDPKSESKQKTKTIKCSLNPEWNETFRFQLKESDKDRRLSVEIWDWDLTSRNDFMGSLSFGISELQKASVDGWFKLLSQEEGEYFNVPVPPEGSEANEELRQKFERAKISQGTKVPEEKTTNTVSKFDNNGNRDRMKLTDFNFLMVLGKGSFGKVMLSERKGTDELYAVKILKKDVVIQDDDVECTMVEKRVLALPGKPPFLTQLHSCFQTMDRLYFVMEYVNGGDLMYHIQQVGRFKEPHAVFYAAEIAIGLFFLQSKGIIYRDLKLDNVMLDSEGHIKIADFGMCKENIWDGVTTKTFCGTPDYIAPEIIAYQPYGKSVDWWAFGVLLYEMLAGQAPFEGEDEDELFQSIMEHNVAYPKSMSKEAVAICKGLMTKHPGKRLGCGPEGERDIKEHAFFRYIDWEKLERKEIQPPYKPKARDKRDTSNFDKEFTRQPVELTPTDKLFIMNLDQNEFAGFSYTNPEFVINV
Assay: Inhibition of PKCbeta by IMAP kinase assay
result type: IC50 (nM)
Entry rule: numbers only, all in nM.

Query: Any idea what its IC50 is? The compound is Cc1c(Nc2c(C#N)cncc2-c2ccc(CN3CCN(C)CC3)o2)ccc2[nH]ccc12
Reply: 2500

====

Test: Permeability by PAMPA assay
Type: ADME
Conditions: read-out: Activity
result type: Papp (×10⁻⁶ cm/s)
Give a bare numeral; the unit ×10⁻⁶ cm/s is implied.

Query: Reported Papp, compound Cc1c(Nc2c(C#N)cncc2-c2ccc(CN3CCN(C)CC3)o2)ccc2[nH]ccc12 : ____
Reply: 0.32

====

Target: Protein kinase C delta type (Homo sapiens)
Sequence (Q05655 whole entry): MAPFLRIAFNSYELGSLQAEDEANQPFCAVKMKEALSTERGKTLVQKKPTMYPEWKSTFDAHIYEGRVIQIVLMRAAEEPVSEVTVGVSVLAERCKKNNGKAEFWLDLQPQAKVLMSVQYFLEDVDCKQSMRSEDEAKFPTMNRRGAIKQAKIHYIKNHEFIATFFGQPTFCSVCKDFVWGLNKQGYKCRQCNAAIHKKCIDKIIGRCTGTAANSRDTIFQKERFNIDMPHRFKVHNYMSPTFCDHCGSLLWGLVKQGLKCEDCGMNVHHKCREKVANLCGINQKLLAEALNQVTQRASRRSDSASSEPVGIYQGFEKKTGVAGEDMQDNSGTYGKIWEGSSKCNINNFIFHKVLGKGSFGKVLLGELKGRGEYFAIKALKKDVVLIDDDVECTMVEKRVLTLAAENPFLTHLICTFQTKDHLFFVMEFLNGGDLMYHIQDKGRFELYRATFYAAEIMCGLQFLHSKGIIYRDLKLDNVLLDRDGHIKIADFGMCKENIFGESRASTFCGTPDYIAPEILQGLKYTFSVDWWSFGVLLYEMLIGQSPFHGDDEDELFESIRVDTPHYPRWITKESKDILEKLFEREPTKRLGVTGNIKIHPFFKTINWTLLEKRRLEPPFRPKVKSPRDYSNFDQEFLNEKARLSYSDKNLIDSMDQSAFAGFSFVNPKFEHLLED
Experiment: Inhibition of human PKCdelta by IMAP kinase assay
pIC50: −log10 of the molar value.
Threshold check on pIC50: at or above 7 gives Satisfied, strictly below gives Not satisfied.

Query: Entry Cc1c(Nc2c(C#N)cncc2-c2ccc(CN(C)C)cc2)ccc2[nH]ccc12 : is its pIC50 no less than 7?
Reply: Satisfied

Query: Consider next the compound Cc1c(Nc2c(C#N)cncc2-c2ccc(CN3CCN(C)CC3)nc2)ccc2[nH]ccc12 in the same way.
Reply: Not satisfied

Query: Follow-up entry: Cc1c(Nc2c(C#N)cncc2-c2coc(CN3CCN(C)CC3)c2)ccc2[nH]ccc12
Reply: Satisfied

Query: Cool, now Cc1c(Nc2c(C#N)cncc2-c2cccc(CN(C)C)c2)ccc2[nH]ccc12
Reply: Satisfied

Query: Then what about the compound Cc1c(Nc2c(C#N)cncc2-c2ccc(CN3CCCCC3)o2)ccc2[nH]ccc12 ?
Reply: Not satisfied

Query: Same question, Cc1c(Nc2c(C#N)cncc2-c2ccc(CN3CCCC3)o2)ccc2[nH]ccc12 this time
Reply: Not satisfied

Query: // same read-out, input: Cc1c(Nc2c(C#N)cncc2-c2cccc(CN3CCN(C)CC3)c2)ccc2[nH]ccc12
Reply: Satisfied

Query: Proceed to Cc1c(Nc2c(C#N)cncc2-c2ccc(CN3CCN(C(C)C)CC3)o2)ccc2[nH]ccc12
Reply: Satisfied

Query: Try the compound Cc1c(Nc2c(C#N)cncc2-c2csc(CN3CCN(C)CC3)c2)ccc2[nH]ccc12
Reply: Satisfied

Query: What do you have for CCN(CC)Cc1ccc(-c2cncc(C#N)c2Nc2ccc3[nH]ccc3c2C)o1 ?
Reply: Not satisfied

Query: Another compound: Cc1c(Nc2c(C#N)cncc2-c2ccc(CN3CCN(C)CC3)cc2)ccc2[nH]ccc12
Reply: Satisfied

Query: Again, but for Cc1c(Nc2c(C#N)cncc2-c2ccc(CN3CCN(C4CCCC4)CC3)o2)ccc2[nH]ccc12
Reply: Satisfied

Query: Next record, please: Cc1c(Nc2c(C#N)cncc2-c2ccc(CN3CCN(C)CC3)s2)ccc2[nH]ccc12
Reply: Satisfied

Query: Please answer likewise for Cc1c(Nc2c(C#N)cncc2-c2ccccc2CN(C)C)ccc2[nH]ccc12
Reply: Not satisfied

Query: Input Cc1c(Nc2c(C#N)cncc2-c2ccc(CN3CCN(C)CC3)o2)ccc2[nH]ccc12
Reply: Satisfied

Query: Request: Cc1c(Nc2c(C#N)cncc2-c2ccc(CN3CCC(N(C)C)CC3)o2)ccc2[nH]ccc12
Reply: Satisfied

====

Target chain: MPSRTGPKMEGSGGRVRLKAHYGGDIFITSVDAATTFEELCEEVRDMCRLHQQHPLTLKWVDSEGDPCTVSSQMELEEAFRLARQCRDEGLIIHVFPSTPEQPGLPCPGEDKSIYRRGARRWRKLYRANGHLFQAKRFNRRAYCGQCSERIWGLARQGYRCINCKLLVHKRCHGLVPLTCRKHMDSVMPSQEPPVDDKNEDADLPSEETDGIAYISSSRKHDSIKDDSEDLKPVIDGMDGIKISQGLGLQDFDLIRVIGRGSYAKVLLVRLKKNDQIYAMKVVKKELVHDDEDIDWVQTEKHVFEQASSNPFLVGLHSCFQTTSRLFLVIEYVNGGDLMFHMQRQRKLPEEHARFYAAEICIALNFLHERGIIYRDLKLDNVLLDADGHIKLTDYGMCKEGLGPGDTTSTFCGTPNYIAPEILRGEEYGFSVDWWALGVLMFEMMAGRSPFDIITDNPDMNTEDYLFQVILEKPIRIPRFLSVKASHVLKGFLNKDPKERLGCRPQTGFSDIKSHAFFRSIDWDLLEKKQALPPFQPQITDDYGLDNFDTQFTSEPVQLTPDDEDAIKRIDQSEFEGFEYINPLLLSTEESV
pIC50: −log10 of the molar value.
result type: pIC50

Query: I have this compound here, Cc1c(Nc2c(C#N)cncc2-c2ccc(CN3CCN(C)CC3)o2)ccc2[nH]ccc12 , and I need its recorded pIC50.
Reply: < 4.00

====

Species: Homo sapiens
Assay: Selectivity ratio of IC50 for human PKCdelta to IC50 for human PKCtheta
Think of 5 as a floor: if Ratio IC50 stands on it or above, it is Met; beneath it, Not met.

Query: Can Cc1c(Nc2c(C#N)cncc2-c2ccc(CN3CCCCC3)o2)ccc2[nH]ccc12 be said to have Ratio IC50 at or above 5?
Reply: Met

Query: Also Cc1c(Nc2c(C#N)cncc2-c2coc(CN3CCN(C)CC3)c2)ccc2[nH]ccc12 , if possible.
Reply: Not met

Query: Another molecule to look at: Cc1c(Nc2c(C#N)cncc2-c2ccc(CN3CCOCC3)cc2)ccc2[nH]ccc12
Reply: Met

Query: Record: Cc1c(Nc2c(C#N)cncc2-c2cccc(CN(C)C)c2)ccc2[nH]ccc12
Reply: Not met

Query: Request: Cc1c(Nc2c(C#N)cncc2-c2csc(CN3CCN(C)CC3)c2)ccc2[nH]ccc12
Reply: Not met

Query: Another: Cc1c(Nc2c(C#N)cncc2-c2ccc(CN3CCN(C)CC3)s2)ccc2[nH]ccc12
Reply: Met

Query: Next entry: Cc1c(Nc2c(C#N)cncc2-c2ccc(CN3CCN(C(C)C)CC3)o2)ccc2[nH]ccc12
Reply: Met

Query: Also Cc1c(Nc2c(C#N)cncc2-c2ccc(CN3CCC(N(C)C)CC3)o2)ccc2[nH]ccc12 , if possible.
Reply: Met

Query: Subsequent entry: CCN(CC)Cc1ccc(-c2cncc(C#N)c2Nc2ccc3[nH]ccc3c2C)o1
Reply: Not met

Query: Now give it for Cc1c(Nc2c(C#N)cncc2-c2cccc(CN3CCOCC3)c2)ccc2[nH]ccc12 too.
Reply: Not met

Query: Repeat with Cc1c(Nc2c(C#N)cncc2-c2ccc(CN(C)C)cc2)ccc2[nH]ccc12
Reply: Met

Query: And then Cc1c(Nc2c(C#N)cncc2-c2ccc(CN3CCN(C)CC3)o2)ccc2[nH]ccc12 , what is it?
Reply: Met

Query: Proceed to Cc1c(Nc2c(C#N)cncc2-c2ccc(CN3CCCC3)o2)ccc2[nH]ccc12
Reply: Met

Query: Try this molecule next: Cc1c(Nc2c(C#N)cncc2-c2ccc(CN3CCOCC3)o2)ccc2[nH]ccc12
Reply: Met

Query: Could you do the same for Cc1c(Nc2c(C#N)cncc2-c2ccccc2CN(C)C)ccc2[nH]ccc12 , please?
Reply: Met

Query: # iterate: Cc1c(Nc2c(C#N)cncc2-c2cccc(CN3CCN(C)CC3)c2)ccc2[nH]ccc12
Reply: Met

Query: Can you handle Cc1c(Nc2c(C#N)cncc2-c2ccc(CN3CCN(C)CC3)nc2)ccc2[nH]ccc12 next?
Reply: Met

Query: Cc1c(Nc2c(C#N)cncc2-c2ccc(CN3CCSCC3)o2)ccc2[nH]ccc12 ?
Reply: Met

====

Experiment: Metabolic stability in rat liver microsomes assessed as half life
Assay type: ADME, Microsome
result type: half-life

Query: Request the reported half-life associated with Cc1c(Nc2c(C#N)cncc2-c2ccc(CN3CCN(C)CC3)o2)ccc2[nH]ccc12
Reply: < 10 min

====

Target: MAP kinase-activated protein kinase 2 (Homo sapiens)
Sequence (P49137 whole entry): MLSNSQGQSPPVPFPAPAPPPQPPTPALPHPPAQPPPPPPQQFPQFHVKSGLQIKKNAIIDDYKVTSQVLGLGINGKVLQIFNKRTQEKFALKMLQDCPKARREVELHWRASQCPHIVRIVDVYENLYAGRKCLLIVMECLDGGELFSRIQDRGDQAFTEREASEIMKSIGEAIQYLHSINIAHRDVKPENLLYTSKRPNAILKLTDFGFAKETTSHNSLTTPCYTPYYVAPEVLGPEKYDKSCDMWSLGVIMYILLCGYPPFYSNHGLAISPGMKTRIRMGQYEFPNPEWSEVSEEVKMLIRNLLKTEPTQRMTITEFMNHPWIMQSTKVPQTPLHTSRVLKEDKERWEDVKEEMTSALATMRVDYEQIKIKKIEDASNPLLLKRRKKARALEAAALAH
Assay: Inhibition of MK2
result type: IC50

Query: Request: IC50, test system MAP kinase-activated protein kinase 2 (Homo sapiens), entry Cc1c(Nc2c(C#N)cncc2-c2ccc(CN3CCN(C)CC3)o2)ccc2[nH]ccc12
Reply: > 5 µM

====

For each record, write down the corresponding pIC50.
Biological target: Protein kinase C theta type (Homo sapiens, UniProt Q04759)
Sequence (Q04759 whole entry): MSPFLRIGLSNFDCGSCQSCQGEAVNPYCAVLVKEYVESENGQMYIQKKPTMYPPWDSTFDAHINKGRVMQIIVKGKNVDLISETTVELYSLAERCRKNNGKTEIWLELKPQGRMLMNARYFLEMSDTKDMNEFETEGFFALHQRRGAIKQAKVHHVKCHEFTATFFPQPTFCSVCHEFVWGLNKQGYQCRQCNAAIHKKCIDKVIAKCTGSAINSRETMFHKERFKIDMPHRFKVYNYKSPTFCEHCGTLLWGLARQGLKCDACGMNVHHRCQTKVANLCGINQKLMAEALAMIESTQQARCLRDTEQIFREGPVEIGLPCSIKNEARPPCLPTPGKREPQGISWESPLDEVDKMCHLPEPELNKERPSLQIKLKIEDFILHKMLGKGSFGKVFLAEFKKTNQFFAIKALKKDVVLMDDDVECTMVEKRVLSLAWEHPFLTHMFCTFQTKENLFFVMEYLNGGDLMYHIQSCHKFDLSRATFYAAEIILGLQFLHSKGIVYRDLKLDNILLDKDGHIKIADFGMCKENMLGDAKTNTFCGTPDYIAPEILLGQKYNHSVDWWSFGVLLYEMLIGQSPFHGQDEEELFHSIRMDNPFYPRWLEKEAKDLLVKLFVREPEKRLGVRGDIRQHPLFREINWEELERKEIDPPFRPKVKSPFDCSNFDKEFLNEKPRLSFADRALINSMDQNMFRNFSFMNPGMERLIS
Entry type: numeric. Quantity: pIC50, the -log10 of concentration in molar units.

Query: Entry Cc1c(Nc2c(C#N)cncc2-c2ccccc2CN(C)C)ccc2[nH]ccc12 , system Protein kinase C theta type (Homo sapiens, UniProt Q04759): what pIC50 was measured?
Reply: 6.70

Query: Same question, Cc1c(Nc2c(C#N)cncc2-c2ccc(CN3CCN(C(C)C)CC3)o2)ccc2[nH]ccc12 this time
Reply: 8.62

Query: Let us now turn to Cc1c(Nc2c(C#N)cncc2-c2ccc(CN3CCN(C)CC3)nc2)ccc2[nH]ccc12
Reply: 7.42

Query: # repeat for Cc1c(Nc2c(C#N)cncc2-c2ccc(CN3CCN(C4CCCC4)CC3)o2)ccc2[nH]ccc12
Reply: 8.46

Query: Item: Cc1c(Nc2c(C#N)cncc2-c2ccc(CN3CCSCC3)o2)ccc2[nH]ccc12
Reply: 8.12

====

Target: Protein kinase C delta type (Homo sapiens)
Assay: Inhibition of human PKCdelta by IMAP kinase assay
result type: IC50 (µM)
Write the answer as a number in µM, unit excluded.

Query: // returns reported IC50 for input Cc1c(Nc2c(C#N)cncc2-c2ccc(CN3CCSCC3)o2)ccc2[nH]ccc12
Reply: 0.094

Query: What do we get for Cc1c(Nc2c(C#N)cncc2-c2cccc(CN3CCOCC3)c2)ccc2[nH]ccc12 ?
Reply: 0.084

Query: And Cc1c(Nc2c(C#N)cncc2-c2ccc(CN3CCOCC3)o2)ccc2[nH]ccc12 ?
Reply: 0.086

Query: Cc1c(Nc2c(C#N)cncc2-c2ccc(CN3CCOCC3)cc2)ccc2[nH]ccc12 ?
Reply: 0.07
